Origin of the recorded values: ChEMBL document CHEMBL5291721

- SYSTEM TESTED: Alpha-2A adrenergic receptor (Homo sapiens)
- Type: functional, cell-based
Readings of AC50 for the listed compounds

>  <COMPOUND>
CN(C)Cc1nnc2n1-c1ccc(Cl)cc1C(c1ccccc1)=NC2 [ADINAZOLAM]

>  <SYSTEM TESTED>
Alpha-2A adrenergic receptor (Homo sapiens)

>  <AC50>
> 10 µM

$$$$
>  <COMPOUND>
CN(CCOc1ccc(CC2SC(=O)NC2=O)cc1)c1ccccn1 (stereo not drawn) [ROSIGLITAZONE]

>  <SYSTEM TESTED>
Alpha-2A adrenergic receptor (Homo sapiens)

>  <AC50>
> 30 µM

$$$$
>  <COMPOUND>
C[N+]1(C)CCC(=C(c2ccccc2)c2ccccc2)CC1

>  <SYSTEM TESTED>
Alpha-2A adrenergic receptor (Homo sapiens)

>  <AC50>
> 10 µM

$$$$

* * *

- SYSTEM TESTED: Alpha-2A adrenergic receptor (Homo sapiens, UniProt P08913)
- Sequence (P08913 whole entry): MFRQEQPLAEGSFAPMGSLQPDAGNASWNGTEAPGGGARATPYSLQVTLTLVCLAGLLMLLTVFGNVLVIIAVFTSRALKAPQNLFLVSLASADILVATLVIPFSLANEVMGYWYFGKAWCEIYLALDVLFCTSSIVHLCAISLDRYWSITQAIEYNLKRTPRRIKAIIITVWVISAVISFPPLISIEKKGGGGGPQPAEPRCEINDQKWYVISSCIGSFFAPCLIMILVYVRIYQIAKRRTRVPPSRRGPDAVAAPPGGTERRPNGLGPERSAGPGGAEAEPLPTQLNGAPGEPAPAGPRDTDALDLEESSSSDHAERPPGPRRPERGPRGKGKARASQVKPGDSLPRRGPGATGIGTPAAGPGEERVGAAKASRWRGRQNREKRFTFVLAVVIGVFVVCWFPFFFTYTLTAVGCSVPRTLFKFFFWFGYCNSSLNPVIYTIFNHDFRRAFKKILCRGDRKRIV
- Format: functional, cell-based

>  <COMPOUND>
CN[C@@H](C)[C@@H](O)c1ccccc1

>  <SYSTEM TESTED>
Alpha-2A adrenergic receptor (Homo sapiens, UniProt P08913)

>  <AC50>
> 10 µM

$$$$
>  <COMPOUND>
CCOC(=O)c1ccc(N)cc1

>  <SYSTEM TESTED>
Alpha-2A adrenergic receptor (Homo sapiens, UniProt P08913)

>  <AC50>
> 10 µM

$$$$
>  <COMPOUND>
COc1cc(C(C)=O)ccc1OCCCN1CCC(c2noc3cc(F)ccc23)CC1

>  <SYSTEM TESTED>
Alpha-2A adrenergic receptor (Homo sapiens, UniProt P08913)

>  <AC50>
0.45 µM

$$$$
>  <COMPOUND>
COc1cc(C(=O)OCc2cccc(COC(=O)c3cc(OC)c(OC)c(OC)c3)n2)cc(OC)c1OC

>  <SYSTEM TESTED>
Alpha-2A adrenergic receptor (Homo sapiens, UniProt P08913)

>  <AC50>
> 30 µM

$$$$
>  <COMPOUND>
Cc1onc(-c2c(F)cccc2Cl)c1C(=O)N[C@@H]1C(=O)N2[C@@H]1SC(C)(C)[C@@H]2C(=O)O

>  <SYSTEM TESTED>
Alpha-2A adrenergic receptor (Homo sapiens, UniProt P08913)

>  <AC50>
> 30 µM

$$$$
>  <COMPOUND>
CC(C)(Oc1ccc(CCNC(=O)c2ccc(Cl)cc2)cc1)C(=O)O [BEZAFIBRATE]

>  <SYSTEM TESTED>
Alpha-2A adrenergic receptor (Homo sapiens, UniProt P08913)

>  <AC50>
> 10 µM

$$$$
>  <COMPOUND>
CCCN1CCCC[C@H]1C(=O)Nc1c(C)cccc1C

>  <SYSTEM TESTED>
Alpha-2A adrenergic receptor (Homo sapiens, UniProt P08913)

>  <AC50>
> 30 µM

$$$$
